Ref: ChEMBL document CHEMBL1201862

Tested on: HCC 2998
TEST SUMMARY: NCI tumour cell line growth inhibition, 48 h
The source made the active and inactive calls. Cut-off read from the data, not from the text of the source: active = GI50 up to about 1.1 µM and inactive = higher.
MEASUREMENT LABEL: GI50

>>> df
                                   molecule      endpoint_result
0  CC(C)(C)CN1[C@@H]2CCCC[C@H]2N(CC(C)(C)C)P1(=O)C(O)/C=C/c1ccccc1 (some centres not stated)   28.5 µM (inactive)
1            Cc1noc(C)c1-n1nc2ccc3nonc3c2n1  > 100 µM (inactive)
2               Cc1ccsc1/C=N/Nc1nc2ccccc2s1   63.2 µM (inactive)
3   CC1=NN(C2=NS(=O)(=O)c3ccccc3N2C)C(=O)C1  > 100 µM (inactive)
4  COC(=O)c1c(CC(Cc2ccc3c(c2)CCCC3)C(=O)OC)ccc2c1CCCC2 (configuration not stated)   23.1 µM (inactive)
5  C[C@H](CCC(=O)O)[C@H]1CC[C@@]2(C)[C@@H]3C(=O)C[C@H]4C(C)(C)[C@@H](O)CC[C@]4(C)[C@H]3C(=O)C[C@]12C  > 100 µM (inactive)
6         C/C(=N\Nc1nc2ccccc2[nH]1)c1cnccn1   19.6 µM (inactive)
